- target.under.test: Peroxisome proliferator-activated receptor gamma (Homo sapiens)
- experiment.description: OT_PPARg_PPARgSRC1_1440: Odyssey Thera (OT) 24-hour Protein-Complementation Assay for Peroxisome Proliferator-activated Receptor Gamma/ SRC-1 Co-activator (AID 2283388);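 also: nuclear to cytoplasmic ratio of reconstituted Venus YFP fluorescence in fixed imaged cells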
Activity calls are given as the source filed them. The calls were made as follows: active = hit-call score of the fitted dose curve at least 0.9, where 1 is the maximum; inconclusive = response in the unintended direction; inactive = score below 0.9.
measurement.label: outcome

Solved cases (5 shown):
- molecule: "O=C(O)c1c(Cl)ccc2cc(Cl)cnc12"
  outcome: "inactive"
- molecule: "Cc1c(COC(=O)[C@@H]2[C@H](/C=C(\\Cl)C(F)(F)F)C2(C)C)cccc1-c1ccccc1"
  outcome: "inactive"
- molecule: "CN=C=S"
  outcome: "inactive"
- molecule: "CCNC(=O)NC(=O)C(C#N)=NOC"
  outcome: "inactive"
- molecule: "CCCC(=NOCC)C1=C(O)CC(CC(C)SCC)CC1=O (centres undefined)"
  outcome: "inactive"

Could I get outcome for every one of these entries?
1. Nc1c(Cl)c(F)nc(OCC(=O)O)c1Cl
2. CCOc1cc(C(C)(C)C)ccc1C1COC(c2c(F)cccc2F)=N1 (centres undefined)
3. COCC(C)N(C(=O)CCl)c1c(C)csc1C (centres undefined)
4. N#Cc1c(Cl)cccc1Cl
5. CC(C)=CC1C(C(=O)OCc2coc(Cc3ccccc3)c2)C1(C)C (centres undefined)
6. CNC(=O)N(C)c1nnc(C(C)(C)C)s1
7. Nc1c(Cl)c(Cl)nc(C(=O)O)c1Cl
8. CC(C)N1C(=O)N(c2ccccc2)CSC1=NC(C)(C)C

inactive
inactive
inactive
inactive
inactive
inactive
inactive
inactive

Could I get outcome for every one of these entries?
1. O=C(Nc1ccccc1-c1ccc(Cl)cc1)c1cccnc1Cl
2. CSC(=O)c1c(C(F)F)nc(C(F)(F)F)c(C(=O)SC)c1CC(C)C
3. CC1(C)CON(Cc2ccccc2Cl)C1=O
4. Cc1cnc(C2=NC(C)(C(C)C)C(=O)N2)c(C(=O)O)c1 (centres undefined)
5. CC(C)(C)C(=O)C(Oc1ccc(Cl)cc1)n1cncn1 (centres undefined)

1: inactive; 2: inactive; 3: inactive; 4: inactive; 5: inactive

Peroxisome proliferator-activated receptor gamma (Homo sapiens) outcome of CC1(C)C(C(=O)OC(C#N)c2cccc(Oc3ccccc3)c2)C1(C)C (centres undefined) is inactive

Source listed as PubChem BioAssay (EPA / NIEHS).
